Recorded Mean % WT Binding, one value per entry.
molecular target: human CD33 F44E (human, UniProt P20138 18-364); test: flow cytometry, mutant on cells, IgG
Sequence (P20138 18-364 F44E limits assumed): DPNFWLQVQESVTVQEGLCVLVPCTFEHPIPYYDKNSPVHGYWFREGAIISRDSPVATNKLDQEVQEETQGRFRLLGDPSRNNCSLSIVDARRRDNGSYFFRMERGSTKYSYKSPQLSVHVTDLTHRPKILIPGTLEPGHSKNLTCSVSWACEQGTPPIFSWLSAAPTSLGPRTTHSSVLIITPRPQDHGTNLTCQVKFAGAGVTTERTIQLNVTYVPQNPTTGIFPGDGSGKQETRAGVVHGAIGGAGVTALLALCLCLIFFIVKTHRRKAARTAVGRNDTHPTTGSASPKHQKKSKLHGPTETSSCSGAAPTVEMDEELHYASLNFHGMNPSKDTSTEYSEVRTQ
Answer format: number, then unit.

The examples below pair each entry with its known result.
{"Binder": "Refmab #3 (antibody, human IgG1, V domains shown, Tested in IgG format; human IgG1 Fc silent (PG-LALA)) VH: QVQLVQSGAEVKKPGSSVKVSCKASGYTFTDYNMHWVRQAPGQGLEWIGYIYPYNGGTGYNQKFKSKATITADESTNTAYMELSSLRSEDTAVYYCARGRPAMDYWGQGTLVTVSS VL: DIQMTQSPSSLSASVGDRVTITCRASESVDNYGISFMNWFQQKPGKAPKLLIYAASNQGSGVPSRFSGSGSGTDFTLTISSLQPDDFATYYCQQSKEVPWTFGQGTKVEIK", "Reported": "33.3 % WT binding"}
{"Binder": "Refmab #4 (antibody, human IgG1, V domains shown, Tested in IgG format; human IgG1 Fc silent (PG-LALA)) VH: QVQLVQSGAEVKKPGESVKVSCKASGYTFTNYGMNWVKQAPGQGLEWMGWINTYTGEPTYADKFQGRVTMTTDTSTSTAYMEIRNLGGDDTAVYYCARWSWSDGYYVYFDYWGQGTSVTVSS VL: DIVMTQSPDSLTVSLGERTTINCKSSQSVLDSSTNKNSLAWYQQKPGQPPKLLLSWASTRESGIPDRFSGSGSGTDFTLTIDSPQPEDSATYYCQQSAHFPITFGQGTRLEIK", "Reported": "112 % WT binding"}
{"Binder": "Refmab #1 (antibody, human IgG1, V domains shown, Tested in IgG format; human IgG1 (Absolute Antibody hP67.6, Cat. No. Ab00283-10.0); also called hP67.6) VH: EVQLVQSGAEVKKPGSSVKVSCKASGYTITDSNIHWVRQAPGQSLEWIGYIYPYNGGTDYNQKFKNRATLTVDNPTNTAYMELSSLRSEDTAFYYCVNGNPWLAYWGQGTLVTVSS VL: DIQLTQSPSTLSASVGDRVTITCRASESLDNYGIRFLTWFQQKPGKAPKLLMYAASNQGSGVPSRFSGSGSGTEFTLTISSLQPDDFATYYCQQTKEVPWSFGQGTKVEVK", "Reported": "92.7 % WT binding"}

Here is the next item to consider.
Q: Provide only the value of recorded Mean % WT Binding for Refmab #2 (antibody, human IgG1, V domains shown, Tested in IgG format; human IgG1 Fc silent (PG-LALA)) VH: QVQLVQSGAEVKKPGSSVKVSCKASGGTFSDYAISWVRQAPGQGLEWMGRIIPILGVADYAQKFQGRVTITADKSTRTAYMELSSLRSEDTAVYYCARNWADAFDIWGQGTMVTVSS VL: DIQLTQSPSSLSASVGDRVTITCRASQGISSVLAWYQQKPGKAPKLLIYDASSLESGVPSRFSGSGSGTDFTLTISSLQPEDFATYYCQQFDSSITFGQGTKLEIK
A: 1.7 % WT binding
